// provenance: PubChem BioAssay (NCATS)

- experimentSummary: MultiTox-Fluor Cytotoxicity Assay - LYMP1-003 - Dead Cells (AID 961);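 further: cells exposed to compound for 16 h at 37 °C; nearly all actives have a fitted effect of over 70% in size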
- details: LYMP1-003 lymphoblastoid cells, dead-cell protease fluorescence; series mostly up to 92.2 µM
- Description: NIH Chemical Genomics Center [NCGC] NIH Molecular Libraries Screening Centers Network [MLSCN] National Institutes of Environmental Health Sciences [NIEHS] National Toxicology Program [NTP] We have developed a 1536-well cell-based assay for quantitative high throughput screening (qHTS) against a number of cell lines to determine in vitro cytotoxicity of small molecules. […] 8. Detection; dead-cell fluorescence (Ex/Em=485/520); EnVision plate reader […]
The source made the active and inactive calls. The call rests on the fitted dose curve; in most records, active means well fitted cell-killing curve with a large enough effect; inconclusive means small, poorly fitted or top-dose-only effect, or effect the other way; inactive means flat fitted curve, though single readings scatter.
Classes used: y for active, n for inactive

INSERT INTO results (smilesstructure, assignedcategory) VALUES
  ('CCOC(C)=O', 'n'),
  ('O=S(=O)(O)O', 'n'),
  ('CCCCCCCC(=O)O', 'n'),
  ('O=C(O)CCC(=O)C(=O)O', 'n'),
  ('Nc1ccn([C@H]2CS[C@@H](CO)O2)c(=O)n1', 'n'),
  ('CC(C)=O', 'n'),
  ('CCCCC/C=C\C/C=C\CCCCCCCC(=O)O', 'n'),
  ('CCCCCCCC/C=C\CCCCCCCC(=O)O', 'n'),
  ('O=CCCCC=O', 'y');

* * *

- experimentSummary: qHTS profiling for inhibitors of Plasmodium falciparum proliferation (AID 504749); further: nearly all actives have a fitted effect of over 60% in size; further: potency means the concentration at half of the fitted maximal effect
- details: P. falciparum in erythrocytes, SYBR Green DNA, 72 h; parasite line B
Inconclusive results are not listed. The source made the active and inactive calls. The call rests on the fitted dose curve; in most records, active means well fitted inhibition curve with a large enough effect; inconclusive means small, poorly fitted or top-dose-only effect; inactive means flat fitted curve, though single readings scatter.
propertyLabel: Potency

INSERT INTO assay_data (molecule, result) VALUES
  ('O=C1C(=O)c2ncccc2-c2cccnc21', '1.12 µM (active)'),
  ('CCCCCCCCCCCCCC[n+]1ccc(C)cc1', '5.62 µM (active)'),
  ('COC(C(=O)C(O)C(C)O)C1Cc2cc3cc(OC4CC(OC5CC(O)C(O)C(C)O5)C(O)C(C)O4)c(C)c(O)c3c(O)c2C(=O)C1OC1CC(OC2CC(OC3CC(C)(O)C(O)C(C)O3)C(O)C(C)O2)C(O)C(C)O1 (stereo not drawn)', '0.224 µM (active)'),
  ('C[C@]12O[C@H](C[C@]1(O)CO)n1c3ccccc3c3c4c(c5c6ccccc6n2c5c31)CNC4=O', '0.447 µM (active)'),
  ('C[C@@H]1CCC2[C@@H](C)[C@@H](O)O[C@@H]3O[C@@]4(C)CC[C@@H]1[C@@]23OO4 (stereo partly drawn)', '0.0018 µM (active)'),
  ('COC(=O)[C@H]1[C@H]2C[C@@H]3c4[nH]c5ccccc5c4CCN3C[C@H]2C[C@@H](OC(=O)c2cc(OC)c(OC)c(OC)c2)[C@@H]1OC', '0.631 µM (active)'),
  ('COc1cc(-c2ccc(-[n+]3nc(-c4ccccc4)nn3-c3ccc([N+](=O)[O-])cc3)c(OC)c2)ccc1-[n+]1nc(-c2ccccc2)nn1-c1ccc([N+](=O)[O-])cc1', '11.2 µM (active)'),
  ('O=C(Nc1cccc(C(F)(F)F)c1)c1cc(Br)cc(Br)c1O', '10 µM (active)');

* * *

- Test system: W2
- experimentSummary: qHTS profiling for inhibitors of Plasmodium falciparum proliferation (AID 504749); further: nearly all actives have a fitted effect of over 60% in size
- details: P. falciparum in erythrocytes, SYBR Green DNA, 72 h; series mostly up to 28.7 µM
- Experimental: NIH National Institute of Allergy and Infectious Diseases [NIAID] NIH Chemical Genomics Center [NCGC] […] Because mature erythrocytes lack DNA, only Plasmodium-derived DNA is detected. NCGC Assay Protocol Summary: The SYBR Green viability assay was adapted from a method described previously (Plouffe et al., 2008). […] The following morning, fluorescence intensity at 485(14) nm excitation and 535(25) nm emission wavelengths was measured on an EnVision (Perkin Elmer) plate reader. […]
Records with an inconclusive call do not appear. Calls of active or inactive are those of the source. Calls come from the whole dose curve; as a rule, active = well fitted inhibition curve with a large enough effect; inconclusive = small, poorly fitted or top-dose-only effect; inactive = flat fitted curve, though single readings scatter. Peptide text beside a SMILES is read from it.
Outcome codes: 1 (active), 0 (inactive)

INSERT INTO results (molecule, assignedcategory) VALUES
  ('CCOC(C)=O', 0),
  ('CC(=O)N[C@@H](CC(=O)O)C(=O)N[C@@H](CCC(=O)O)C(=O)O (Ac-Asp-Glu-OH)', 0),
  ('CCCC(=O)Nc1ncnc2c1ncn2C1OC2COP(=O)(O)OC2C1OC(=O)CCC (configuration not stated)', 0),
  ('CCCCCCC(O)C/C=C/CCCCCCCC(=O)O (configuration not stated)', 0),
  ('CO[C@H]1C[C@@H]2CC[C@@H](C)[C@@](O)(O2)C(=O)C(=O)N2CCCC[C@H]2C(=O)O[C@H]([C@H](C)C[C@@H]2CC[C@@H](OCCO)[C@H](OC)C2)CC(=O)[C@H](C)/C=C(\C)[C@@H](O)[C@@H](OC)C(=O)[C@H](C)C[C@H](C)/C=C/C=C/C=C/1C', 1),
  ('NC(=O)c1ncn(C2OC(CO)C(O)C2O)n1 (configuration not stated)', 0),
  ('O=C1CSC2(CCN(CCCN3c4ccccc4Sc4ccc(Cl)cc43)CC2)N1', 1),
  ('O=CCCCC=O', 1),
  ('CCCCC(=O)O[C@]1(C(=O)CO)[C@H](C)C[C@H]2[C@@H]3CCC4=CC(=O)C=C[C@]4(C)[C@@]3(F)[C@@H](O)C[C@@]21C', 1),
  ('COc1ccc2c3c1O[C@H]1C[C@@H](O)C=C[C@@]31CCN(C)C2', 0),
  ('C=CCSSSCC=C', 0),
  ('COC(=O)CCC(=O)CN', 0),
  ('Cc1ccccc1OCC(O)CNCCOc1ccc(C(N)=O)cc1 (configuration not stated)', 0),
  ('COC(=O)[C@H]1[C@H]2C[C@@H]3c4[nH]c5ccccc5c4CCN3C[C@H]2C[C@@H](OC(=O)c2cc(OC)c(OC)c(OC)c2)[C@@H]1OC', 1),
  ('CCN(CC)Cc1cc(Nc2ccnc3cc(Cl)ccc23)ccc1O', 1),
  ('O=S(=O)(O)c1ccc2c(N=Nc3ccc(S(=O)(=O)O)c4ccccc34)c(O)c(S(=O)(=O)O)cc2c1', 0),
  ('COC(C(=O)C(O)C(C)O)C1Cc2cc3cc(OC4CC(OC5CC(O)C(O)C(C)O5)C(O)C(C)O4)c(C)c(O)c3c(O)c2C(=O)C1OC1CC(OC2CC(OC3CC(C)(O)C(O)C(C)O3)C(O)C(C)O2)C(O)C(C)O1 (configuration not stated)', 1),
  ('Nc1ncnc2c1ncn2[C@@H]1O[C@H](COP(=O)(O)OP(=O)(O)OP(=O)(O)O)[C@@H](O)[C@H]1O', 0),
  ('CC(O)CO (configuration not stated)', 0),
  ('CCCCCCCCCCCCCCCC(=O)OCC(COC(=O)CCCCCCCCCCCCCCC)OC(=O)CCCCCCCCCCCCCCC', 0),
  ('COc1cc(-c2ccc(-[n+]3nc(-c4ccccc4)nn3-c3ccc([N+](=O)[O-])cc3)c(OC)c2)ccc1-[n+]1nc(-c2ccccc2)nn1-c1ccc([N+](=O)[O-])cc1', 1),
  ('CO[C@H](C(=O)[C@@H](O)[C@@H](C)O)C1Cc2cc3cc(O[C@H]4C[C@@H](O[C@H]5C[C@@H](O)[C@H](O)[C@@H](C)O5)[C@@H](O)[C@@H](C)O4)c(C)c(O)c3c(O)c2C(=O)[C@H]1O[C@H]1C[C@@H](O[C@H]2C[C@@H](O[C@H]3C[C@](C)(O)[C@H](O)[C@@H](C)O3)[C@H](O)[C@@H](C)O2)[C@H](O)[C@@H](C)O1 (some centres not stated)', 1);

* * *

- Tested on: CP252
- experimentSummary: qHTS profiling for inhibitors of Plasmodium falciparum proliferation (AID 504749); further: nearly all actives have a fitted effect of over 60% in size
- details: P. falciparum in erythrocytes, SYBR Green DNA, 72 h; series mostly up to 28.7 µM
Records with an inconclusive call do not appear. The source made the active and inactive calls. The call rests on the fitted dose curve; in most records, active means well fitted inhibition curve with a large enough effect; inconclusive means small, poorly fitted or top-dose-only effect; inactive means flat fitted curve, though single readings scatter.
Possible outcomes: true (1) = active, false (0) = inactive

INSERT INTO results (compound, assignedcategory) VALUES
  ('COCC(=O)Nc1cc(Sc2ccccc2)ccc1N=C(NC(=O)OC)NC(=O)OC', 'false (0)'),
  ('CCN(CC)CCOc1ccc(-c2nc3cc(Cl)ccc3s2)cc1', 'false (0)'),
  ('C[C@]12O[C@H](C[C@]1(O)CO)n1c3ccccc3c3c4c(c5c6ccccc6n2c5c31)CNC4=O', 'true (1)'),
  ('O=S(=O)(O)c1ccc2c(N=Nc3ccc(S(=O)(=O)O)c4ccccc34)c(O)c(S(=O)(=O)O)cc2c1', 'false (0)'),
  ('C#CCOc1ccc2c(C)cc(=O)oc2c1', 'false (0)'),
  ('Cc1cn([C@H]2C[C@H](O)[C@@H](CO)O2)c(=O)[nH]c1=O', 'false (0)'),
  ('CCCCCCCC/C=C\CCCCCCCC(=O)O', 'false (0)'),
  ('CC(O)CO (stereo not given)', 'false (0)'),
  ('CC1=C(/C=C/C(C)=C/C=C/C(C)=C/C=C/C=C(C)/C=C/C=C(C)/C=C/C2=C(C)C(=O)CCC2(C)C)C(C)(C)CCC1=O', 'false (0)'),
  ('O=C(O)CN(CCN(CC(=O)O)CC(=O)O)CC(=O)O', 'false (0)');
